Values compiled from ChEMBL document CHEMBL1134332.

Target: Glutamate carboxypeptidase 2 (Rattus norvegicus)
Sequence (P70627 whole entry): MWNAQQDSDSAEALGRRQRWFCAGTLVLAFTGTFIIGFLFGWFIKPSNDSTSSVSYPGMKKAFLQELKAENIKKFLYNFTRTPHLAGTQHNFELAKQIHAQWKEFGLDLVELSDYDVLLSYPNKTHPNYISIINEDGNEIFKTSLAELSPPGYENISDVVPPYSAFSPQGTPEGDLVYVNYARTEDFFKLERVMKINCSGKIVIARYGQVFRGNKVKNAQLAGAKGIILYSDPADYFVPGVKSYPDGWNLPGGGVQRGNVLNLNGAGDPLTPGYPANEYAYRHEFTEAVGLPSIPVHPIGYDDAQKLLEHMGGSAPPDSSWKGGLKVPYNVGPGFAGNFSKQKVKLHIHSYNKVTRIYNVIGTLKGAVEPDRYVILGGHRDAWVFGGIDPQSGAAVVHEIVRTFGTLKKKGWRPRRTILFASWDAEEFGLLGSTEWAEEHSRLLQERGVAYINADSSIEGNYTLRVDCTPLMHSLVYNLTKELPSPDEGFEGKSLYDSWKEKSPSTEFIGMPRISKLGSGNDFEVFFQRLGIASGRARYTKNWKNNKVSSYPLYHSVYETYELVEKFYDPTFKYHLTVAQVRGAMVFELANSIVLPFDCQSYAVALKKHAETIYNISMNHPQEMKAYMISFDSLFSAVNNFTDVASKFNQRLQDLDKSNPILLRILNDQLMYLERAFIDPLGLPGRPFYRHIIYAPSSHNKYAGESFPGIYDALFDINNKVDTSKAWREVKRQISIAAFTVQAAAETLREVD
Assay: Inhibitory activity against expressed rat Glutamate carboxypeptidase II, using a substrate concentration of 5 uM
Peptide text beside a SMILES is read from it.
recorded metric: IC50 (nM)

Below are worked cases with known answers.
>>> quantitative_readout("O=C(O)CC[C@H](CP(=O)(O)C[C@@H](CCC(=O)O)C(=O)O)C(=O)O")
21.7
>>> quantitative_readout("N[C@@H](CCC(=O)O)C(=O)N[C@@H](CCC(=O)O)C(=O)O (H-Glu-Glu-OH)")
750
>>> quantitative_readout("O=C(O)CCC(CP(=O)(O)O)C(=O)O (stereo not given)")
5.1

I. CC(C)(C)SCC(NC(=O)N[C@@H](CCC(=O)O)C(=O)O)C(=O)O (stereo not given in full)
II. O=C(O)CC[C@H](NC(=O)N[C@@H](CS)C(=O)O)C(=O)O
Field: entry with larger IC50 (options I / II ). // output: label of the selected item I
